# Assayed system: PD-L1 expressed on the cell surface (MC38 hPD-L1) (Homo sapiens, UniProt Q9NZQ7)
# Construct: expressed in transfected cells; host or cells: MC38 mouse colon cancer cell line expressing human PD-L1
# Sequence (Q9NZQ7 19-290): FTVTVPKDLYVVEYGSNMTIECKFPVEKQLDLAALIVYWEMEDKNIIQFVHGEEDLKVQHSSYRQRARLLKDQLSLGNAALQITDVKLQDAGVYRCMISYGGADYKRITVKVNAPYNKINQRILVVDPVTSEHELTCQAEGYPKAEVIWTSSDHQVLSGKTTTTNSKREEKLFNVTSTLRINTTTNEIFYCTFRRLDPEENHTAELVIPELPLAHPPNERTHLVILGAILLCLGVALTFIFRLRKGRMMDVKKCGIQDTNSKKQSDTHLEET
# Measurement description: Internalization of cell surface PD-L1, flow cytometry with fluorescent staining
# Format: cell-based
# Condition notes: MC38 hPD-L1 cells, 1 µM, 4 hours; untreated 90% to 99%
Assign Cell surface PD-L1 expression level (%) to each entry below.
The reply should be a number in %, with the unit left off.

Look up and report measured Cell surface PD-L1 expression level (%) for this entry: O=C(O)CN[C@H]1CCCn2nc(C(=O)Nc3cccc(-c4cccc(NC(=O)c5ccc(CNCCO)cn5)c4Cl)c3Cl)cc21 [Compound 220]
0.6

Look up and report measured Cell surface PD-L1 expression level (%) for this entry: Cc1c(NC(=O)c2cc3n(n2)CCC[C@H]3NCC(=O)O)cccc1-c1cccc(Nc2nc(C(F)F)nc3cc(CN4CC[C@@H](O)C4)cnc23)c1C [Compound 213]
73.9

Look up and report measured Cell surface PD-L1 expression level (%) for this entry: O=C(O)CN[C@H]1CCCn2nc(C(=O)Nc3cccc(-c4cccc(NC(=O)c5ccc(CN6CC[C@@H](O)C6)cn5)c4Cl)c3Cl)cc21 [Compound 222]
0.3

Look up and report measured Cell surface PD-L1 expression level (%) for this entry: O=C(O)CN[C@@H]1CCCn2nc(C(=O)Nc3cccc(-c4cccc(Nc5nccc6cc(CN7CC[C@@H](O)C7)cnc56)c4Cl)c3Cl)cc21 [Compound 219]
36.5

Look up and report measured Cell surface PD-L1 expression level (%) for this entry: O=C(Nc1cccc(-c2cccc(NC(=O)c3cc4n(n3)CCC[C@@H]4NCCO)c2Cl)c1Cl)c1ccc(CNCCO)cn1 [Compound 206]
0.9

Look up and report measured Cell surface PD-L1 expression level (%) for this entry: Cc1c(NC(=O)c2cc3n(n2)CCC[C@@H]3N2CC[C@@H](C(=O)O)C2)cccc1-c1cccc(Nc2nc(C(F)F)nc3cc(CN4CC[C@@H](O)C4)cnc23)c1C [Compound 210]
3.2
